- Test system: Pseudomonas aeruginosa
- assayName: Antibacterial activity against Pseudomonas aeruginosa ATCC 27853 assessed as effect on planktonic growth at 0.17 ug/ml after 20 hrs relative to control
- Assay type: functional

{"molecule": "COc1ccc(C)cc1C1=C(Br)C(=O)N(CC(C)C)/C1=C\\c1ccccc1Cl", "Activity / %": -1.9}
{"molecule": "COc1ccc(Br)cc1C1=C(Br)C(=O)N(CC(C)C)C1(O)Cc1cccc(Cl)c1 (stereo not given)", "Activity / %": -7.3}
{"molecule": "COc1ccc(C)cc1C1=C(Br)C(=O)O/C1=C\\c1ccccc1Cl", "Activity / %": -3.8}
{"molecule": "COc1ccc(Br)cc1C1=C(Br)C(=O)N(CC(C)C)/C1=C\\c1ccc(Br)cc1", "Activity / %": 4.1}
{"molecule": "COc1ccc(C)cc1C1=C(Br)C(=O)N(CC(C)C)/C1=C/c1ccccc1Cl", "Activity / %": 1.2}
{"molecule": "COc1ccc(Br)cc1C1=C(Br)C(=O)O/C1=C\\c1ccc(Br)cc1", "Activity / %": -1.8}
{"molecule": "COc1cccc(/C=C2/C(c3cc(Cl)ccc3OC)=C(Br)C(=O)N2CC(C)C)c1", "Activity / %": 3.2}
{"molecule": "COc1ccc(Cl)cc1C1=C(Br)C(=O)O/C1=C\\c1ccccc1Br", "Activity / %": -3.8}
{"molecule": "COc1cccc(CC2(O)C(c3cc(Cl)ccc3OC)=C(Br)C(=O)N2CC(C)C)c1 (stereo not given)", "Activity / %": -4}
{"molecule": "COc1ccccc1C1=C(Br)C(=O)N(CC(C)C)/C1=C/c1ccc(C(F)(F)F)cc1", "Activity / %": -2.3}
{"molecule": "COc1ccc(C)cc1C1=C(Br)C(=O)N(CC(C)C)C1(O)Cc1ccccc1Cl (stereo not given)", "Activity / %": -2.5}
{"molecule": "COc1ccccc1C1=C(Br)C(=O)O/C1=C\\c1ccc(C(F)(F)F)cc1", "Activity / %": -1.3}
{"molecule": "COc1ccccc1C1=C(Br)C(=O)N(CC(C)C)/C1=C\\c1ccc(C(F)(F)F)cc1", "Activity / %": -2.1}
{"molecule": "COc1ccc(Br)cc1C1=C(Br)C(=O)N(CC(C)C)/C1=C/c1ccc(Br)cc1", "Activity / %": 0.9}
{"molecule": "COc1ccc(Br)cc1C1=C(Br)C(=O)N(CC(C)C)/C1=C/c1cccc(Cl)c1", "Activity / %": 1.8}
{"molecule": "COc1cccc(/C=C2\\OC(=O)C(Br)=C2c2cc(Cl)ccc2OC)c1", "Activity / %": -1.2}
{"molecule": "COc1ccc(Cl)cc1C1=C(Br)C(=O)N(CC(C)C)/C1=C/c1ccccc1Br", "Activity / %": -1.8}
{"molecule": "COc1cccc(/C=C2\\C(c3cc(Cl)ccc3OC)=C(Br)C(=O)N2CC(C)C)c1", "Activity / %": 18}
{"molecule": "COc1ccc(Br)cc1C1=C(Br)C(=O)N(CC(C)C)C1(O)Cc1ccc(Br)cc1 (stereo not given)", "Activity / %": -4}
{"molecule": "COc1ccccc1C1=C(Br)C(=O)N(CC(C)C)C1(O)Cc1ccc(C(F)(F)F)cc1 (stereo not given)", "Activity / %": 4.7}
